- System: Renal Hypertensive Rats
- Protocol Description: Antihypertensive effects in renal hypertensive rats
- Assay type: in vivo
- Condition Info: Rattus norvegicus; Table 25; intravenous, 10 mg/kg or less
Measurement Label: minimal effective dose at 10 mg/kg

| Compound | Study System | Reported Value |
| --- | --- | --- |
| CCCCc1nc(Cl)c(C=O)n1Cc1ccc(-c2ccccc2C(=O)O)cc1 | Renal Hypertensive Rats | < 10 mg/kg |

So what minimal effective dose at 10 mg/kg did CCCCCc1nc(Cl)c(CO)n1Cc1ccc(-c2ccccc2C(=O)O)cc1 get with Renal Hypertensive Rats?
< 10 mg/kg

Now give it for CCCCc1nc(Cl)c(CC(=O)OC)n1Cc1ccc(NC(=O)[C@@H]2CCCC[C@H]2NS(=O)(=O)C(F)(F)F)cc1 (relative stereo) [Example 74 (trans compound)] too.
< 10 mg/kg

Now give it for CC(C)c1nccn1Cc1ccc(NC(=O)c2ccccc2NS(=O)(=O)C(F)(F)F)cc1 too.
< 10 mg/kg

Now give it for CCCCc1nc(Cl)c(CO)n1Cc1ccc(-c2ccccc2-c2c[nH]nn2)cc1 too.
< 10 mg/kg

Now give it for CCCCc1nc(Cl)c(COC)n1Cc1ccc(-c2ccccc2NS(=O)(=O)C(F)(F)F)cc1 too.
< 10 mg/kg

Now give it for CCCCc1nc(Cl)c(/C=C/CO)n1Cc1ccc(NC(=O)c2ccccc2C(=O)O)cc1 too.
< 10 mg/kg

Now give it for CCCCc1nc(Cl)c(C(=O)NC)n1Cc1ccc(-c2ccccc2C(=O)O)cc1 too.
< 10 mg/kg
